- subject-of-test: Glycine receptor subunit alpha-2 (Rattus norvegicus, UniProt P22771)
- Sequence (P22771 whole entry): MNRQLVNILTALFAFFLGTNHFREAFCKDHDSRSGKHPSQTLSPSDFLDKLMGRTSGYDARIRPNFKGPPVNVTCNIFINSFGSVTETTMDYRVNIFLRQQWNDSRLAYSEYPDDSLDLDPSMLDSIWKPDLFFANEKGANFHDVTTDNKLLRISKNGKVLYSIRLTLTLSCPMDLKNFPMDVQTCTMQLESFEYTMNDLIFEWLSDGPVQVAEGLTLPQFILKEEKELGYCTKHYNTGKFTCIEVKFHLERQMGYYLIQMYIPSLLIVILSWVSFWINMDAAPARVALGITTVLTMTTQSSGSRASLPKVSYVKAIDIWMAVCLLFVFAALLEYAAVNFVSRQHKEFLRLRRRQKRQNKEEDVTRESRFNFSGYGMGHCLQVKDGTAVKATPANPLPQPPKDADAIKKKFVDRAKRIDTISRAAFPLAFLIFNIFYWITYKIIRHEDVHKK
- experiment-summary: Inhibition of rat alpha2 homomeric glycine receptor expressed in CHO cells assessed as inhibition of 300 uM glycine-elicited current by outside patch clamp technique
quantity-measured: IC50 (µM)
Please respond with the number in µM and leave the unit unwritten.

C=C(C)[C@@H]1[C@H]2OC(=O)[C@@H]1[C@]1(O)C[C@H]3O[C@]34C(=O)O[C@H]2[C@]14C : 2.4

Task item: Form field: reported IC50 of CC(C)(O)[C@@H]1[C@H]2OC(=O)[C@@H]1[C@]1(O)C[C@H]3O[C@]34C(=O)O[C@H]2[C@]14C
Reply: 117
